Recorded values, source patent US20220411495A1.

- target: T1, rat CaSR (rCaSR) (Rattus norvegicus, UniProt P48442)
- T1 construct: mGlu5 signal peptide (N); expressed in transfected cells; host or cells: HEK293A, transient transfection
- T1 sequence (P48442 20-1079): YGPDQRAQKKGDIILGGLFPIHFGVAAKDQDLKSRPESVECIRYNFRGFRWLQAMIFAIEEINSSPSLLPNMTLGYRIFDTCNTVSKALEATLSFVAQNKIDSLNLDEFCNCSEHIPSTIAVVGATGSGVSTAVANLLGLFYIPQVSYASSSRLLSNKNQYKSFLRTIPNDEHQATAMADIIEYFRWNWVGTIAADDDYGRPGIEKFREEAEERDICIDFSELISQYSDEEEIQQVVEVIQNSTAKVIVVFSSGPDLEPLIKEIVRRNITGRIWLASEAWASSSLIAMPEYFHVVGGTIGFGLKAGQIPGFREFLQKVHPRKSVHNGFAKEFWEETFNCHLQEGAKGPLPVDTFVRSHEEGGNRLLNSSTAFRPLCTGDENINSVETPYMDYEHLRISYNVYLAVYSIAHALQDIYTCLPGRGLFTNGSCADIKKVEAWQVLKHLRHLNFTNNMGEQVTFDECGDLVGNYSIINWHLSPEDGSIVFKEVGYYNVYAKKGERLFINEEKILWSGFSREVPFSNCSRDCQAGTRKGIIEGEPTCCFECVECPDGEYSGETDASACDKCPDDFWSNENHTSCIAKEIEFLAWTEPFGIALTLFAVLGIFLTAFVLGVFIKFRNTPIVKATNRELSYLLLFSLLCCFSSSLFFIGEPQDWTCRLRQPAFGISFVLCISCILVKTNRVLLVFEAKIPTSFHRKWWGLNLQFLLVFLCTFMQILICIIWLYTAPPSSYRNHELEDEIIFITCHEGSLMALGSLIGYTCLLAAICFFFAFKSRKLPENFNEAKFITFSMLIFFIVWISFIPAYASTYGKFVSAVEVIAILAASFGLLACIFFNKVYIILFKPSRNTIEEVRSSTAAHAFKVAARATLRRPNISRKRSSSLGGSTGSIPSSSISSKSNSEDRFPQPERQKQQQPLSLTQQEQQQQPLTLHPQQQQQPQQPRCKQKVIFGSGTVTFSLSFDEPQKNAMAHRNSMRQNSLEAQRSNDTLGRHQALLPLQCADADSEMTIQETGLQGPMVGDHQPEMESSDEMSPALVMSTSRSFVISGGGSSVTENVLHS
- measurementProtocol: IP1 accumulation assay, HEK293A cells transiently transfected with HA-rCaSR WT
- Assay type: cell-based
- testParameters: IP1 accumulation at EC20 Ca2+
The molecules listed here are annotated with their Max. response (fold over basal ± S.E.M.), rat ortholog.
Give just the numeric value; fold over basal need not be written.

q: Give Max. response (fold over basal ± S.E.M.), rat ortholog for the following molecule: Nb10: llama-derived CaSR-specific nanobody acting as PAM, SEQ ID NO:3 (protein, CaSR Nb10) VHH: QVQLVESGGGLVQPGDSLRVSCAASGGSFRSYAMAWFRQAPGKEREFVAAMSGTYGSTIYSDSMKGRFTISRDNAKKMVYLRMNSLRPEDTAVYYCAGYYSGAYYGTPKTDYTEYDSWGQGTQVTVSS
a: 2.89

q: Give Max. response (fold over basal ± S.E.M.), rat ortholog for the following molecule: Nb5: llama-derived CaSR-specific nanobody, weakest PAM, SEQ ID NO:8 (protein, CaSR Nb5) VHH: QVQLVESGGRLVQDGGSLRLSCAASGLTFSDYSMGWFRQVPGKEREFVAVIRRSNDSTYYADFVKGRFTISRDNAKNTVYLQMNSLQPEDTAVYSCAADRGGVGLTSAQTYAYWGQGTQVTVSS
a: 1.28

q: Give Max. response (fold over basal ± S.E.M.), rat ortholog for the following molecule: Nb37: llama-derived CaSR-specific nanobody acting as PAM, SEQ ID NO:4 (protein, CaSR Nb37) VHH: QVQLVESGGGLVQPGDSLRVSCAASGGSFRSYAMAWFRRAPGKEREFVAAMSGTYGSTIYADSMKGRFTISRDNAKKMVYLRMNSLRAEDTAVYYCAGYYSGAYYGTPKTDYTEYDSWGQGTQVTVSS
a: 3.07

---
q: Give Max. response (fold over basal ± S.E.M.), rat ortholog for the following molecule: Nb36: llama-derived CaSR-specific nanobody acting as PAM, SEQ ID NO:7 (protein, CaSR Nb36) VHH: QVQLVESGGGLVQAGESLRLSCAASGRTFSSYRMGWFRQGPGKEREFVAAITATGVRTYYADSVKGRFTISRDNAKNTVYLQMNSLQPDDTAVYLCAARRKAIFSVQQALTITDYDDWGQGTQVTVSS
a: 3.10
